target_or_test_system: Trx reductase-1 (TrxR1) (Rattus norvegicus, UniProt O89049)
Sequence (O89049 1-499): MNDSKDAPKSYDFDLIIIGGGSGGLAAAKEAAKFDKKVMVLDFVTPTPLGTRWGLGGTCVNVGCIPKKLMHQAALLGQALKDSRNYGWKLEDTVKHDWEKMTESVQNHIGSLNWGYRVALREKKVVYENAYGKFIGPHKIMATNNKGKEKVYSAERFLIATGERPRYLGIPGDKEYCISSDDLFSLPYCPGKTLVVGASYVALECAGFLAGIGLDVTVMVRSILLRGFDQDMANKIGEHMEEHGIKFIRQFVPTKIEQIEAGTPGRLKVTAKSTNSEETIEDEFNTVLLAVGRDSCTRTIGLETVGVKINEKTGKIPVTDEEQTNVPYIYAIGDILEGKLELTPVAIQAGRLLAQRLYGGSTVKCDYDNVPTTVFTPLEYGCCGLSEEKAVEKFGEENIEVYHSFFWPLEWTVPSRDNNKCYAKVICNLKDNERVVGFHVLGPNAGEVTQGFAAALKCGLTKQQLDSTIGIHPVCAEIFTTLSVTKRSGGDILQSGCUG
pIC50: −log10 of the molar value.
Below, each entry is listed alongside its reported pIC50.
observable: pIC50

- chem_smiles: "O=NN(CCCl)C(=O)NCCCl"
  test_result: 5.27
- chem_smiles: "CNC(=O)N(NS(C)(=O)=O)S(C)(=O)=O"
  test_result: 5.00
- chem_smiles: "CNC(=O)N(N(CCCl)S(C)(=O)=O)S(C)(=O)=O"
  test_result: 5.30
